Values compiled from PubChem BioAssay (NCI).

# Test system: IGROV1 ovarian
# procedure_details: NCI tumour cell line growth inhibition, 48 h
measurement_kind: TGI

Examples with answers:
Nc1ccc(CC[C@H]2CCC/C=C/[C@@H]3C[C@H](O)C[C@H]3[C@H](O)/C=C/C(=O)O2)cc1	0.175 µM
Clc1cc(N/N=C(\c2ccccc2)c2ccccn2)ncn1	89.9 µM
COC(=O)CC1(O)C(=O)OCc2c1cc1n(c2=O)Cc2c-1nc1ccccc1c2OC (stereo not given)	> 74.3 µM

Provide the reported TGI of each entry below, same order.
1. O=[N+]([O-])c1cccc(/C=N/Nc2ccc3ccccc3n2)c1O
2. Clc1ccc(-c2cn3c(nc4ccccc43)c(-c3ccccc3)n2)cc1
3. Cc1cc(NC(=O)NCc2ccc(N3C(N)=NC(N)=NC3(C)C)cc2)ccc1S(=O)(=O)F
4. C[N+]1(C)CCCC(C#N)(c2ccccc2)CC1 (stereo not given)
5. COc1cc2c(c(OC)c1OC)-c1cc(I)c(O)cc1[C@@H](NC(C)=O)CC2

Result:
> 42.7 µM
> 78.3 µM
> 100 µM
> 100 µM
> 31.6 µM

Provide the reported TGI of each entry below, same order.
1. Cc1ccc(-c2nc(NCCOCCOCCN)nc(N3CCN(c4ccccn4)CC3)n2)cc1
2. CCOC(=O)Cc1c(C(=O)OCC)[n+](=O)c2cc(Cl)c(Cl)cc2n1[O-]
3. CCOc1ccc(NC(=O)CC2SC(=Nc3ccc(C)cc3)NC2=O)cc1 (stereo not given)
4. C[C@]12CC[C@H]3[C@@H](CC=C4C[C@@H](O)CC[C@@]43C)[C@@H]1C/C(=C\c1cccnc1)[C@@H]2O
5. CCOC(=O)N1c2ccccc2C(C)=CC(C)C1C (stereo not given)
6. Nc1nc(SCc2ccccc2Cl)c2ncn(C3OC(CO)C(O)C3O)c2n1 (stereo not given)
7. CCSC[C@@H]1C[C@](O)(c2ccccc2)[C@@H](c2ccccc2)O1

Result:
38 µM
2.35 µM
> 100 µM
> 100 µM
> 100 µM
> 100 µM
> 100 µM

###

Task for the reader: assign each of the following molecules its reported TGI.
# System: U251 CNS
# procedure_details: NCI tumour cell line growth inhibition, 48 h

Examples with answers:
Cc1cccc2c(=O)c3c(O)cc(O)cc3n(C)c12	> 100 µM
COC(=O)CN1CCN(c2cccc3c2CCCC3)CC1	> 100 µM
CCCCCCCCCCCC1N=C(N)N=C(N)N1c1cccc(Br)c1 (stereo unspecified)	1.98 µM
COc1cc2c(oc(=O)c3c4occc4cc(OC)c23)c2cccc(O)c12	> 100 µM
COC(=O)C1=NC(=S)NC(c2ccccc2)C1c1nc2ccccc2o1 (stereo unspecified)	> 50 µM
COC(=O)/C=C(C)/C=C\COC1CCCCO1 (stereo unspecified)	> 100 µM
CC(C)c1cc(=O)[nH]c2cc(N)ccc12	> 100 µM
FC(F)(F)c1ccccc1C1SCc2nc3ccccc3n21 (stereo unspecified)	> 100 µM

Provide the reported TGI of each entry below, same order.
1. NC(Cc1ccccc1)C(=O)OCN1C(=O)C2C3C=CC(C2C1=O)C1C(=O)N(COC(=O)C(N)Cc2ccccc2)C(=O)C31 (stereo unspecified)
2. OC12CCC3(OC4CCCCO4)c4ccccc4C3C1c1ccccc12 (stereo unspecified)
3. O=c1cc(-c2cccc(OC(F)(F)F)c2)[nH]c2ccc(N3CCCC3)cc12

Result:
1: > 100 µM; 2: > 100 µM; 3: 16.5 µM

###

Task for the reader: assign each of the following compounds its reported TGI.
# Tested on: MDA-MB-435
# procedure_details: NCI tumour cell line growth inhibition, 48 h
One number for each entry, in µM.

Examples with answers:
CCN(CC)CCOC(COc1cc(C)cc(C)c1)COc1cc(C)cc(C)c1	3.63
CC(=O)c1csc2c1C(=O)c1ccccc1C2=O	3.97
Fc1ccccc1CN1COc2c(cc(Cl)c3cccnc23)C1	8.27
CCc1ccc2c(c1)C(=O)c1c-2n(CCCN)c(=O)c2cc(OC)c(OC)cc12	3.55
O=c1c(-c2nc3ccccc3c3ccccc3c2=O)nc2ccccc2c2ccccc12	89
S=c1ssnc1-c1cc2ccccc2o1	32
O=C1CCC(c2ccccc2)=NN1c1nc2ccccc2s1	69.7
CC[C@H](C)[C@H](NC(=O)C12C3C4C1C1C2C3C41NC)C(=O)N(C)[C@H](C[C@@H](OC(C)=O)c1nc(C(=O)N[C@@H](Cc2ccccc2)C[C@H](C)C(=O)OC)cs1)C(C)C (stereo partly specified)	0.377
CC(=O)c1cc2c(N)c(C(=O)Nc3cccc4ccccc34)sc2nc1C	1.08
O=C(/C=C/c1ccc(O)c(O)c1)N1CCN(c2ccc(Cl)cc2)CC1	62.2

So for COc1cccc(C2CC(=O)Nc3c2c(C)nn3-c2nc3ccccc3[nH]2)c1OC (stereo unspecified) , the logged TGI turned out to be 12

###

# Tested on: NCI/ADR-RES ovarian
# procedure_details: NCI tumour cell line growth inhibition, 48 h; in the data active means GI50 below about 0.43 µM; inactive means the rest
// classify into Y for active, N for inactive

The following molecules have reported results that may help.
Nc1ccc(CC[C@H]2CCC/C=C/[C@@H]3C[C@H](O)C[C@H]3[C@H](O)/C=C/C(=O)O2)cc1	Y
[CH3][Sn]([CH3])([CH3])[S]C(=S)N1CCOCC1	N

Q: What did the test return for CN1CCCCC1CCN1c2ccccc2Sc2ccc(Br)cc21 (stereo unspecified) ?
Result: N

Q: What did the test return for COc1ccc2nc3ccccc3c(NCCNCCO)c2c1 ?
Result: N

Q: What did the test return for COc1cc(N=Nc2cc(Cc3ccc(N(C)C)cc3)c(N)cc2N(C)C)c2ncccc2c1 ?
Result: Y

Q: What did the test return for CC[C@H](C)[C@H](NC(=O)C12C3C4C1C1C2C3C41NC)C(=O)N(C)[C@H](C[C@@H](OC(C)=O)c1nc(C(=O)N[C@@H](Cc2ccccc2)C[C@H](C)C(=O)OC)cs1)C(C)C (stereo partly specified) ?
Result: N

###

# System: U251 CNS
# procedure_details: NCI tumour cell line growth inhibition, 48 h
measurement_kind: TGI

Examples with answers:
CCCCNc1ncnc2c1cnn2-c1ccccc1	> 61.8 µM
CC1(C)N=C(N)N=C(N)N1c1ccc(CCCC(=O)Nc2ccc(S(=O)(=O)F)cc2)cc1	> 100 µM
Nc1nc(Cl)c(CO)c(NCC2(CO)CCC2)n1	> 100 µM
Cc1cc(NC(=O)NCc2ccc(N3C(N)=NC(N)=NC3(C)C)cc2)ccc1S(=O)(=O)F	> 100 µM
Cc1ccc(NCCNCC(C)(C)O)c2c(=O)c3ccc(Cl)cc3sc12	3.06 µM

Provide the reported TGI of each entry below, same order.
1. N#C/C(=C\c1ccc(O)cc1)C(N)=O
2. C[N+]1(C)CCCC(C#N)(c2ccccc2)CC1 (stereo unspecified)
3. [CH3][Sn]([CH3])([CH3])[S]C(=S)N1CCOCC1
4. CC(=O)OCC1OC(OCCCOP(=O)(OCCC#N)OCC2OC(n3cnc4c(N)ncnc43)C(OC(=O)c3ccccc3)C2OC(=O)c2ccccc2)C(OC(C)=O)C(OC(C)=O)C1OC(C)=O (stereo unspecified)
5. Nc1nc(Cl)c2ncn(CCCC(c3ccccc3)P(=O)(O)O)c2n1 (stereo unspecified)
6. O=c1ccc(N=Nc2ccccc2)ccc1O

Result:
1: > 100 µM; 2: > 100 µM; 3: 11.4 µM; 4: > 100 µM; 5: > 100 µM; 6: 20.2 µM

###

# Tested on: SNB-19 CNS
# procedure_details: NCI tumour cell line growth inhibition, 48 h
measurement_kind: TGI

Examples with answers:
COC(=O)[C@@H]1c2c(oc3cc(CO)cc(O)c3c2=O)C=C[C@H]1O	33.5 µM
CC(=O)OC1CCn2c1nc1cc([N+](=O)[O-])c(C)cc12 (centres undefined)	> 100 µM
Cc1cc(N(CCC#N)CCC#N)ccc1/C=C(\NC(=O)/C=C/c1ccccc1)C(=O)Nc1ccccc1Cl	> 100 µM
CC(=O)OCC1OC(OCCCOP(=O)(OCCC#N)OCC2OC(n3cnc4c(N)ncnc43)C(OC(=O)c3ccccc3)C2OC(=O)c2ccccc2)C(OC(C)=O)C(OC(C)=O)C1OC(C)=O (centres undefined)	> 100 µM
CCOC(=O)c1ccc(N(CCOS(C)(=O)=O)CCOS(C)(=O)=O)cc1	> 100 µM
COc1cc2c(oc(=O)c3c4occc4cc(OC)c23)c2cccc(O)c12	> 100 µM
O=C(C[N+]12CN3CN(CN(C3)C1)C2)c1ccc(-c2ccccc2)cc1	57.5 µM
[O]=[Sn]([CH]1CCCCC1)[CH]1CCCCC1	0.95 µM
Clc1ccc(C=Nc2ccc(-c3nc4ccccc4[nH]3)cc2)cc1	> 100 µM
C=CCNC(=S)NNC(=O)c1c(C)nc2sccn12	> 100 µM

Provide the reported TGI of each entry below, same order.
1. COCN1C(=O)[C@@H]2CCCN2C(=O)c2ccc(N)cc21
2. N#C/C(=C\c1ccc(O)cc1)C(N)=O

Result:
> 100 µM
> 100 µM

Provide the reported TGI of each entry below, same order.
1. OCCc1ccsc1-c1sc(-c2cc(CCO)c(-c3sc(-c4cc(CCO)c(-c5sccc5CCO)s4)cc3CCO)s2)cc1CCO
2. COc1cc(N=Nc2cc(Cc3ccc(N(C)C)cc3)c(N)cc2N(C)C)c2ncccc2c1
3. CC1CC(=O)N(N(C)C)C2(C#N)C(=O)N=C(N)C12C#N (centres undefined)

Result:
1. 3.01 µM
2. 3.71 µM
3. > 100 µM
